# study_system: T1, IscR wild-type (as purified, about 60% [2Fe-2S] occupied) (Escherichia coli, UniProt P0AGK8 1-162)
# T1 sequence: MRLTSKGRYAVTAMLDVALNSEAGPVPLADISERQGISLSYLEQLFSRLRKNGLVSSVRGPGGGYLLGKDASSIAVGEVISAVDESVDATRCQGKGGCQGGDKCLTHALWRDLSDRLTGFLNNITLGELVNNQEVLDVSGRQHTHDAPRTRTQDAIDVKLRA
# measurement_notes: fluorescence anisotropy
pKd: −log10 of the molar value.

| binder | pKd |
| --- | --- |
| hyaA site, labeled 30-mer (dsDNA) DNA 1: ATAAATCCACACAGTTTGTATTGTTTTGTG DNA 2: CACAAAACAATACAAACTGTGTGGATTTAT | 7.47 |
